Origin of the recorded values: the supplement of paper PMC10567573

B1: SPATS1 (parent)
chain: YPEQSKGFHKAGSMLPPVNFSIVP

# Variants of: B1
# experimental_protocol: protein stability index of a GFP-peptide fusion (GPS, HEK-293T) (PSI 1-6); higher = more stable;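 note: lentivirally expressed fusions sorted by FACS into six bins by GFP to DsRed ratio, PSI derived from sequencing read proportions per bin multiplied by bin number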
# condition: c terminus: a fixed tail appended
Could you label it 1 if measured protein stability index is 2 or higher, and -1 otherwise?

I22E; 1

Given the entry E3C , answer whether its protein stability index meets or surpasses 2.
1

Given the entry H9M , answer whether its protein stability index meets or surpasses 2.
1

Given the entry F8L , answer whether its protein stability index meets or surpasses 2.
1

Given the entry S5H , answer whether its protein stability index meets or surpasses 2.
1

Given the entry N19W , answer whether its protein stability index meets or surpasses 2.
1

Given the entry I22S , answer whether its protein stability index meets or surpasses 2.
1

Given the entry Q4I , answer whether its protein stability index meets or surpasses 2.
-1

Given the entry S21E , answer whether its protein stability index meets or surpasses 2.
-1

Given the entry V23T , answer whether its protein stability index meets or surpasses 2.
-1

Given the entry G12S , answer whether its protein stability index meets or surpasses 2.
-1
